Reference source: ChEMBL document CHEMBL1649420

Target: Matrix metalloproteinase-9 (Homo sapiens) (UniProt P14780);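 also: recombinant human MMP9, activity read after 30 min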
Sequence (P14780 whole entry): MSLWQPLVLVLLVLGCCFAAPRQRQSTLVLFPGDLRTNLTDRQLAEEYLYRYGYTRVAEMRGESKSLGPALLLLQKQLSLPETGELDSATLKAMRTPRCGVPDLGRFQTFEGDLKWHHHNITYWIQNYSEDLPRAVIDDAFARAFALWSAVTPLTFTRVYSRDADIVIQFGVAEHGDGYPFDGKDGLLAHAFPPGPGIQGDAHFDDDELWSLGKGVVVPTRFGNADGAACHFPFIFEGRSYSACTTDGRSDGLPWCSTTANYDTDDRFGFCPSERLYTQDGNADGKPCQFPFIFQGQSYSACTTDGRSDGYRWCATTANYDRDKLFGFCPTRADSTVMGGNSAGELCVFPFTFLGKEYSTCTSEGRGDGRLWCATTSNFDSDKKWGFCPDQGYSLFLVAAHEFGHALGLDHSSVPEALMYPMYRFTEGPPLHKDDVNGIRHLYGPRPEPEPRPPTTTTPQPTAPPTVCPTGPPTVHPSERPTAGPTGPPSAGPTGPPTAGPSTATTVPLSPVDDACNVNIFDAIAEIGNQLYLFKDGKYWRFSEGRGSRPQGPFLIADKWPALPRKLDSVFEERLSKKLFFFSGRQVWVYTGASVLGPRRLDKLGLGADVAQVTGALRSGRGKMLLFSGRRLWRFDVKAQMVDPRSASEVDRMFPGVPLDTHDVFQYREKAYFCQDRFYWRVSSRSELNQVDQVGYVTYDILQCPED
Conditions: at 1 mM
result_type: inhibition (%)
Write it as a number; the unit % goes unstated.

Request: So what's the measured inhibition for this one? O=C(O)c1cc(F)ccc1O
Result: 21

Request: Any idea what inhibition was measured for O=C(O)c1ccc(F)cc1O ?
Result: 5

Request: # query: inhibition of entry Oc1cc(O)nc(S)n1
Result: 15

Request: Requested read-out: inhibition. Entry: [O-][n+]1cccc2cccc(O)c21
Result: 67

Request: Report inhibition for Cc1occ(O)c(=O)c1C(=O)O please.
Result: 51

* * *

Molecular target: UniProtKB P14780
Settings: at 1 mM
Mark TRUE for reported inhibition of 10% or greater; mark FALSE for anything smaller.

These solved cases illustrate the format of a correct answer.
CCC(C(C)=O)C(C)=O | FALSE
Nc1ccc2cccc(O)c2n1 | TRUE
Cc1cc(=O)[nH]c(=S)[nH]1 | TRUE
Oc1ccc(Cl)c2cccnc12 | FALSE

Request: Evaluate O=C(O)c1cccnc1C(=O)O : inhibition at minimum 10%?
Result: FALSE

Request: Decide: inhibition of CC(=O)C(C)C(C)=O >= 10%?
Result: FALSE
